Where do the numbers come from? From ChEMBL document CHEMBL4028831.

Measured IC50 by item
target_entity: UniProt:P48048
assay: Inhibition of human ROMK expressed in CHO cells at -70 mV holding potential after 6 mins by whole cell patch clamp Qpatch method
Format: cell-based
// return numeric value only (unit: µM, not printed)

Below are worked cases with known answers.
[
  {
    "structure": "Cc1cc(N2CCC3(CCN(C[C@H](O)c4ccc5c(c4C)COC5=O)CC3)C2=O)sn1",
    "value_units": "µM",
    "IC50": 0.012
  },
  {
    "structure": "Cc1c([C@@H](O)CN2CCC3(CC2)CCN(c2ccc(=O)n(C)n2)C3=O)ccc2c1COC2=O",
    "value_units": "µM",
    "IC50": 0.017
  },
  {
    "structure": "Cc1nsc(N2CCC3(CCN(C[C@H](O)c4ccc5c(c4C)COC5=O)CC3)C2=O)n1",
    "value_units": "µM",
    "IC50": 0.008
  }
]

Moving on to another compound below.
(Q) Could you tell me which IC50 is on file for COc1nccc(N2CCC3(CCN(C[C@H](O)c4ccc5c(c4C)COC5=O)CC3)C2=O)n1 ?
(A) 0.005

* * *

target_entity: Sodium-dependent serotonin transporter (Homo sapiens, UniProt P31645)
Sequence (P31645 whole entry): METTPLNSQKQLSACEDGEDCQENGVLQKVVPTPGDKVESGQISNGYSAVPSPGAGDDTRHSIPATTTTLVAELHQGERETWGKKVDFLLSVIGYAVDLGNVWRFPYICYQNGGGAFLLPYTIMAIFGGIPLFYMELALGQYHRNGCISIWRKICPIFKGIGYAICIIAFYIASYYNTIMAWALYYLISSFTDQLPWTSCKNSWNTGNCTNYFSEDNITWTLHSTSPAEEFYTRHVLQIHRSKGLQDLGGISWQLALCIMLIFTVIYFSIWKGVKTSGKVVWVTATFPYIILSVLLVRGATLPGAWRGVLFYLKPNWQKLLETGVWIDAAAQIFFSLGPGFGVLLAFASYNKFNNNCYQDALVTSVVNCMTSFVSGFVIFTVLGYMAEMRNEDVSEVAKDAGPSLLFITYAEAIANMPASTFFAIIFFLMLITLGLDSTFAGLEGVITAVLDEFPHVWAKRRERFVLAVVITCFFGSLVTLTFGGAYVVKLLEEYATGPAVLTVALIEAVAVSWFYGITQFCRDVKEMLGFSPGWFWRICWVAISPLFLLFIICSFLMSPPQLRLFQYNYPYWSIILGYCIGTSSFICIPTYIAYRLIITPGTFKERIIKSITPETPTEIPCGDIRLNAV
assay: Inhibition of human SERT
parameter_measured: IC50
Kindly report the value followed by its unit.

(Q) Could you tell me which IC50 is on file for Cc1c([C@@H](O)CN2CCC3(CC2)CCN(c2ccc(=O)n(C)n2)C3=O)ccc2c1COC2=O ?
(A) 10.4 µM

* * *

assay: Volume of distribution at steady state in Wistar Han rat at 1 mg/kg, iv or 2 mg/kg, po
setup_conditions: in vivo
parameter_measured: Vd (L/kg)
// return numeric value only (unit: L/kg, not printed)

(Q) Could you tell me which Vd is on file for Cc1c([C@@H](O)CN2CCC3(CC2)CCN(c2ccc(=O)n(C)n2)C3=O)ccc2c1COC2=O ?
(A) 3.3

* * *

target_entity: Cytochrome P450 3A4 (Homo sapiens)
Sequence (P08684 whole entry): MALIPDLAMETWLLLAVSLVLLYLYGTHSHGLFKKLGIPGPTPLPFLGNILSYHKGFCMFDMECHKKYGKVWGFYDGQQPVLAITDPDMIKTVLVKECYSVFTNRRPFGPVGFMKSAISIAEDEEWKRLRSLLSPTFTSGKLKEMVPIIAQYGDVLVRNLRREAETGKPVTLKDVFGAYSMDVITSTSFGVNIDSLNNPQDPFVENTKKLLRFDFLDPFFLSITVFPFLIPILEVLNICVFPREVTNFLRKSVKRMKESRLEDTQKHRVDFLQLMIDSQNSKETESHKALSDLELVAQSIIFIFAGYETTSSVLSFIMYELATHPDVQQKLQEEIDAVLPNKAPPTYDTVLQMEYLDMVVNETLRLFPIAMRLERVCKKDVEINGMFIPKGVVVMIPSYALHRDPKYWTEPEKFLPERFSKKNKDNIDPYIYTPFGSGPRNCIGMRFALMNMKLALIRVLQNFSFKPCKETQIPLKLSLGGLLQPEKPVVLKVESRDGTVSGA
assay: Inhibition of CYP3A4 (unknown origin)
Type: ADME
pIC50: −log10 of the molar value.
parameter_measured: pIC50

(Q) So what pIC50 did Cc1c([C@@H](O)CN2CCC3(CC2)CCN(c2ccc(=O)n(C)n2)C3=O)ccc2c1COC2=O get with Cytochrome P450 3A4 (Homo sapiens)?
(A) < 4.30

* * *

Measured pIC50 by item
target_entity: ATP-sensitive inward rectifier potassium channel 1 (Homo sapiens, UniProt P48048)
Sequence (P48048 whole entry): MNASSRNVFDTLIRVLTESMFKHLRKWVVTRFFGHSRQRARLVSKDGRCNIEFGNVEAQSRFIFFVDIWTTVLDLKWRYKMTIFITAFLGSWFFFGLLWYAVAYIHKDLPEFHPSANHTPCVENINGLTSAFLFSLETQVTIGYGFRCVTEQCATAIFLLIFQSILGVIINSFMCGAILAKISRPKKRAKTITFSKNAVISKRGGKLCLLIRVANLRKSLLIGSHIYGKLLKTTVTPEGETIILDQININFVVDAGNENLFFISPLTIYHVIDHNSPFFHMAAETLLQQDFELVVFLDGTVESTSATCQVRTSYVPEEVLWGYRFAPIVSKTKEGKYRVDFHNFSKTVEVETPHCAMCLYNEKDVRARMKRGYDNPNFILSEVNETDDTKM
assay: Inhibition of human ROMK channel expressed in HEK293 cells after 30 mins by FLIPR based thallium flux assay
Assay type: cell-based
To interpret pIC50, take it as minus log10 of a concentration measured in moles per litre.

Below are worked cases with known answers.
[
  {
    "structure": "Cc1c([C@@H](O)CN2CCC3(CC2)CCN(c2ccn(C)c(=O)c2)C3=O)ccc2c1COC2=O",
    "pIC50": 5.12
  },
  {
    "structure": "Cc1cc(=O)n(C)nc1N1CCC2(CCN(C[C@H](O)c3ccc4c(c3C)COC4=O)CC2)C1=O",
    "pIC50": 5.98
  },
  {
    "structure": "Cc1nccc(N2CCC3(CCN(C[C@H](O)c4ccc5c(c4C)COC5=O)CC3)C2=O)n1",
    "pIC50": 6.72
  },
  {
    "structure": "COc1nccc(N2CCC3(CCN(C[C@H](O)c4ccc5c(c4C)COC5=O)CC3)C2=O)n1",
    "pIC50": 7.85
  },
  {
    "structure": "Cc1cc(N2CCC3(CCN(C[C@H](O)c4ccc5c(c4C)COC5=O)CC3)C2=O)sn1",
    "pIC50": 7.74
  }
]

Moving on to another molecule below.
(Q) Could you tell me which pIC50 is on file for Cc1c([C@@H](O)CN2CCC3(CC2)CCN(c2cnn(C)c(=O)c2)C3=O)ccc2c1COC2=O ?
(A) 6.74

* * *

target_entity: ATP-sensitive inward rectifier potassium channel 1 (Rattus norvegicus)
Sequence (P35560 whole entry): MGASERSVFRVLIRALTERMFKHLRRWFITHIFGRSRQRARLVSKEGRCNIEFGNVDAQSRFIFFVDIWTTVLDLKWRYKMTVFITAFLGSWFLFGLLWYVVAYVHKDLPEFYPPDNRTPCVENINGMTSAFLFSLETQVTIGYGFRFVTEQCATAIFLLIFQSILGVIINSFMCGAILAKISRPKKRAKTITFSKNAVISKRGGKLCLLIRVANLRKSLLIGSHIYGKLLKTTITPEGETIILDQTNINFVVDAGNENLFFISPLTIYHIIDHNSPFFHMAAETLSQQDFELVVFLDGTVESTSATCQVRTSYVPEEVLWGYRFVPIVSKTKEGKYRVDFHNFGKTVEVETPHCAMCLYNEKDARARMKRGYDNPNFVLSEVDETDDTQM
assay: Inhibition of rat ROMK expressed in HEK293 cells after 30 mins by FLIPR based thallium flux assay
Assay type: cell-based
parameter_measured: IC50 (nM)
// return numeric value only (unit: nM, not printed)

(Q) So what IC50 did Cc1c([C@@H](O)CN2CCC3(CC2)CCN(c2ccc(=O)n(C)n2)C3=O)ccc2c1COC2=O get with ATP-sensitive inward rectifier potassium channel 1 (Rattus norvegicus)?
(A) 38

* * *

assay: Fraction unbound in rat plasma
Type: ADME, cell-free
parameter_measured: fraction unbound

(Q) Could you tell me which fraction unbound is on file for Cc1c([C@@H](O)CN2CCC3(CC2)CCN(c2ccc(=O)n(C)n2)C3=O)ccc2c1COC2=O ?
(A) 0.455

* * *

assay: Clearance in Beagle dog at 1 mg/kg, iv
Format: ADME, organism-based, Canis lupus familiaris
setup_conditions: in vivo
parameter_measured: clearance (mL/min/kg)
// return numeric value only (unit: mL/min/kg, not printed)

Below are worked cases with known answers.
[
  {
    "structure": "COc1nsc(N2CCC3(CCN(C[C@H](O)c4ccc5c(c4C)COC5=O)CC3)C2=O)n1",
    "value_units": "mL/min/kg",
    "reported_result": 24.4
  },
  {
    "structure": "COc1nccc(N2CCC3(CCN(C[C@H](O)c4ccc5c(c4C)COC5=O)CC3)C2=O)n1",
    "value_units": "mL/min/kg",
    "reported_result": 9.7
  }
]

Moving on to another compound below.
(Q) Could you tell me which clearance is on file for Cc1c([C@@H](O)CN2CCC3(CC2)CCN(c2ccc(=O)n(C)n2)C3=O)ccc2c1COC2=O ?
(A) 18.3

* * *

target_entity: Cytochrome P450 2D6 (Homo sapiens, UniProt P10635)
Sequence (P10635 whole entry): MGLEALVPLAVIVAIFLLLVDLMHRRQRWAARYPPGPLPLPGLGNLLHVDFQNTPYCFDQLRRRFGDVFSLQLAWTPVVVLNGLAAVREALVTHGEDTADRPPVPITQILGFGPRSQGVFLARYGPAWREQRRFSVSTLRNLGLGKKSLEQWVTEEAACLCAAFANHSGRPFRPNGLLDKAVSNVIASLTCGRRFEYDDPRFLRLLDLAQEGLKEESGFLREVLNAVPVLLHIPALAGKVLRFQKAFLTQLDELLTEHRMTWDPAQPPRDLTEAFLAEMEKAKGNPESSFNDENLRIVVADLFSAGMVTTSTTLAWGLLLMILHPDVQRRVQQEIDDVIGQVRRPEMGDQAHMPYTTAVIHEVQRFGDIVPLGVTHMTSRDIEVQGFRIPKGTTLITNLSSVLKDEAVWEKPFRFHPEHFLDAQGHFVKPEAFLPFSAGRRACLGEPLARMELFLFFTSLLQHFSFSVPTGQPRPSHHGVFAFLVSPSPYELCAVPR
parameter_measured: IC50

(Q) Could you tell me which IC50 is on file for Cc1c([C@@H](O)CN2CCC3(CC2)CCN(c2ccc(=O)n(C)n2)C3=O)ccc2c1COC2=O ?
(A) > 50 µM

* * *

assay: in vivo
setup_conditions: Wistar Han, rat, po, 2 mg/kg
parameter_measured: bioavailability

(Q) Could you tell me which bioavailability is on file for Cc1c([C@@H](O)CN2CCC3(CC2)CCN(c2ccc(=O)n(C)n2)C3=O)ccc2c1COC2=O ?
(A) 78%

* * *

target_entity: UniProtKB Q12809
Sequence (Q12809 whole entry): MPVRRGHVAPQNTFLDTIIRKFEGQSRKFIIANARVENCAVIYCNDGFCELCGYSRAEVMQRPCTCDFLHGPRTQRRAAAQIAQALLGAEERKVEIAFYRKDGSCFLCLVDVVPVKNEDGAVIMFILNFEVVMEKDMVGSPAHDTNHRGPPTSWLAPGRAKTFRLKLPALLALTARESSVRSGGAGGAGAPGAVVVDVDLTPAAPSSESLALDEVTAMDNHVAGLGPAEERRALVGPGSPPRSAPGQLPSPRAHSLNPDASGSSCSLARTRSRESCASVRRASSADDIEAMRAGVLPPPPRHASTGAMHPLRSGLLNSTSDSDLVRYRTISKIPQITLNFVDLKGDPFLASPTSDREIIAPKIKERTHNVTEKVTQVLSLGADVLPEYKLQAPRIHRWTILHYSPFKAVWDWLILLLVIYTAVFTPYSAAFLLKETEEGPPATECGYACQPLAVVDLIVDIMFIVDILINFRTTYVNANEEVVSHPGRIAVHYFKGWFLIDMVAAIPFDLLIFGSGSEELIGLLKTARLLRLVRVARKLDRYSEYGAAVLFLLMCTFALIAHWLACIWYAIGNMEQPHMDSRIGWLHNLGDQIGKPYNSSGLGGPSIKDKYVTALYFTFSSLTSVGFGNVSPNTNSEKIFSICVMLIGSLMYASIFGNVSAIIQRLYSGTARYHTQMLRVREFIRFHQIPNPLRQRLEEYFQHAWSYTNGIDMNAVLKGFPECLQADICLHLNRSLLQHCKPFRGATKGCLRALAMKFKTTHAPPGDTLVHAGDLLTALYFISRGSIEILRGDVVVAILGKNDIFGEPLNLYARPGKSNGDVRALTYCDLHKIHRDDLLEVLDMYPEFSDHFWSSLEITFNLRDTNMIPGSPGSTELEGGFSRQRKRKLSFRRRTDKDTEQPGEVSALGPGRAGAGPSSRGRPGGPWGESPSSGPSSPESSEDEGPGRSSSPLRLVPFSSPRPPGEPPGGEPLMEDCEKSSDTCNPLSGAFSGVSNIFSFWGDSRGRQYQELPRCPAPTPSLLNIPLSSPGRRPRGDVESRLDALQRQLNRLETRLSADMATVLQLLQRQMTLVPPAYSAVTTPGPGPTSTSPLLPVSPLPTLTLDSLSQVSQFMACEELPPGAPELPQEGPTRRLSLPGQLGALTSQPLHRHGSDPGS
parameter_measured: pIC50
To interpret pIC50, take it as minus log10 of a concentration measured in moles per litre.

[
  {
    "structure": "Cc1c([C@@H](O)CN2CCC3(CC2)CCN(c2ccc(=O)n(C(F)F)n2)C3=O)ccc2c1COC2=O",
    "pIC50": 4.72
  },
  {
    "structure": "Cc1nsc(N2CCC3(CCN(C[C@H](O)c4ccc5c(c4C)COC5=O)CC3)C2)n1",
    "pIC50": 5.38
  }
]

(Q) Could you tell me which pIC50 is on file for Cn1nc(N2CCC3(CCN(C[C@H](O)c4ccc(-n5cnnn5)nn4)CC3)C2=O)ccc1=O ?
(A) 5.51

(Q) Same read-out for Cc1nc(-n2cnnn2)ccc1[C@@H](O)CN1CCC2(CC1)CCN(c1ccc(=O)n(C)n1)C2=O ?
(A) 4.76

(Q) Same read-out for Cc1c([C@@H](O)CN2CCC3(CC2)CCN(c2ccc(=O)n(C4CCCC4)n2)C3=O)ccc2c1COC2=O ?
(A) 4.87

(Q) Same read-out for Cc1c([C@@H](O)CN2CCC3(CC2)CCN(c2cc(-c4ccccc4)no2)C3=O)ccc2c1COC2=O ?
(A) 7.27

(Q) Same read-out for CCn1nc(N2CCC3(CCN(C[C@H](O)c4ccc5c(c4C)COC5=O)CC3)C2=O)ccc1=O ?
(A) 5.12

* * *

Species: Homo sapiens
assay: Selectivity ratio of IC50 for human ERG expressed in HEK293 cells to IC50 for human ROMK expressed in HEK293 cells
Assay type: cell-based
parameter_measured: Ratio IC50
Form: value (number only, do not type unit).

(Q) Could you tell me which Ratio IC50 is on file for Cc1c([C@@H](O)CN2CCC3(CC2)CCN(c2ccc(=O)n(C(F)F)n2)C3=O)ccc2c1COC2=O ?
(A) 147

(Q) Same read-out for Cc1nc(-n2cnnn2)ccc1[C@@H](O)CN1CCC2(CC1)CCN(c1ccc(=O)n(C)n1)C2=O ?
(A) 66

(Q) Same read-out for CCn1nc(N2CCC3(CCN(C[C@H](O)c4ccc5c(c4C)COC5=O)CC3)C2=O)ccc1=O ?
(A) 99

(Q) Same read-out for Cc1nsc(N2CCC3(CCN(C[C@H](O)c4ccc5c(c4C)COC5=O)CC3)C2)n1 ?
(A) 17

(Q) Same read-out for Cn1nc(N2CCC3(CCN(C[C@H](O)c4ccc(-n5cnnn5)nn4)CC3)C2=O)ccc1=O ?
(A) 5

(Q) Same read-out for Cc1c([C@@H](O)CN2CCC3(CC2)CCN(c2cc(-c4ccccc4)no2)C3=O)ccc2c1COC2=O ?
(A) 0.11

(Q) Same read-out for Cc1c([C@@H](O)CN2CCC3(CC2)CCN(c2ccc(=O)n(C4CCCC4)n2)C3=O)ccc2c1COC2=O ?
(A) 329
